# pIC50 values compiled below
subject-of-test: SGLT1 (Homo sapiens)
Construct: expressed in transfected cells
experimental-details: SGLT1 activity measurement: 14C-AMG uptake in BHK cells transfected with SGLT1
Type: cell-based
conditions: AMG 50 μM, 37° C., 90 min
pIC50: −log10 of the molar value.

Cc1cccc(C)c1Nc1c(-c2c(OCC(N)=O)ccc3ccccc23)nc2ccc(F)cn12    5.00 to 6.00
COc1cc(C)c(-c2nc3ccc(F)cn3c2Nc2c(Cl)cccc2Cl)c(OCC(N)=O)c1    5.00 to 6.00
Cc1cccc(C)c1Nc1c(-c2c(C)cc(OC3CCCCO3)cc2OCC(N)=O)nc2ccc(F)cn12 (stereo not shown)    < 5.00
CCc1cc(OS(=O)(=O)N(C)C)cc(OCC(N)=O)c1-c1nc2ccc(F)cn2c1Nc1c(C)cccc1C    < 5.00
Cc1cccc(C)c1Nc1c(-c2c(C)cc(OS(=O)(=O)N(C)C)cc2OCC(N)=O)nc2ccc(F)cn12    < 5.00

Data request: Report pIC50 for NC(=O)COc1ccccc1-c1nc2ccccn2c1Nc1c(Cl)cccc1Cl please.
Data returned: < 5.00

Data request: Next molecule: Cc1cc(C)c(-c2nc3ccc(F)cn3c2Nc2c(C)cccc2C)c(OCC(N)=O)c1
Data returned: 5.00 to 6.00

----------
subject-of-test: SGLT2 (Homo sapiens, UniProt P31639)
experimental-details: SGLT2 activity measurement: 14C-AMG uptake in BHK cells transfected with SGLT2
conditions: AMG 2 mM, 37° C., 90 min
Catalogue of compounds with associated IC50

Consider the reported IC50 for these compounds:
CCc1cc(OC)cc(OCC(N)=O)c1-c1nc2ccc(F)cn2c1Nc1c(C)cc(C(=O)OC)cc1C [Compound A245]    1 to 10 µM
CCc1cc(OC)cc(OCC(N)=O)c1-c1nc2c(F)cc(F)cn2c1Nc1c(C)cccc1C [Compound A221]    0.01 to 1 µM

Okay, now this compound:
Data request: Value lookup for IC50; key = COc1ccc(-c2nc3ccccn3c2Nc2c(Cl)cccc2Cl)c(OCC(N)=O)c1 [Compound A16]
Data returned: 0.01 to 1 µM

----------
subject-of-test: SGLT1 (Homo sapiens, UniProt P13866)
Sequence (P13866 whole entry): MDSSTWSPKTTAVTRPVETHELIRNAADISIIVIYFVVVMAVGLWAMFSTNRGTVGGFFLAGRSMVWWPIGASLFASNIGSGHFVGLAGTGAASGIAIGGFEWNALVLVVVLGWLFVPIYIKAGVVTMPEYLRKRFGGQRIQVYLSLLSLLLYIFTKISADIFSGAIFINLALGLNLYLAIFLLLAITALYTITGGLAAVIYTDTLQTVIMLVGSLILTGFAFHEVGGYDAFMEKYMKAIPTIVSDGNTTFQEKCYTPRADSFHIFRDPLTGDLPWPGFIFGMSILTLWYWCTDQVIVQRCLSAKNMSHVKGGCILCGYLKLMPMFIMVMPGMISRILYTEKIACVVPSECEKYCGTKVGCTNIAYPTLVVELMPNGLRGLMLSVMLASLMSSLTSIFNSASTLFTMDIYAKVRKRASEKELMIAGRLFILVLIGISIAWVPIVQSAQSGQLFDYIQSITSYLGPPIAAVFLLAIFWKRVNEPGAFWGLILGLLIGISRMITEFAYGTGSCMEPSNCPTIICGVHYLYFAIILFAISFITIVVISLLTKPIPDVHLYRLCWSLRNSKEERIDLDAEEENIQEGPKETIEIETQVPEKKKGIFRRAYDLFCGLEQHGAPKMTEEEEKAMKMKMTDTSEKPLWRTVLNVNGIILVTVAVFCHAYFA
experimental-details: SGLT1 activity measurement: 14C-AMG uptake in BHK cells transfected with SGLT1
conditions: AMG 50 μM, 37° C., 90 min
pIC50: −log10 of the molar value.
// pIC50 lookup, one value per entry

Data request: Entry Cc1cccc(C)c1Nc1c(-c2ccc([N+](=O)[O-])cc2OCC(N)=O)nc2ccccn12 has what pIC50?
Data returned: < 5.00

Data request: Now consider CCc1cc(OCC(N)=O)cc(OCC(N)=O)c1-c1nc2ccccn2c1Nc1c(C)cccc1C .
Data returned: < 5.00

----------
subject-of-test: SGLT2 (Homo sapiens, UniProt P31639)
Sequence (P31639 1-672): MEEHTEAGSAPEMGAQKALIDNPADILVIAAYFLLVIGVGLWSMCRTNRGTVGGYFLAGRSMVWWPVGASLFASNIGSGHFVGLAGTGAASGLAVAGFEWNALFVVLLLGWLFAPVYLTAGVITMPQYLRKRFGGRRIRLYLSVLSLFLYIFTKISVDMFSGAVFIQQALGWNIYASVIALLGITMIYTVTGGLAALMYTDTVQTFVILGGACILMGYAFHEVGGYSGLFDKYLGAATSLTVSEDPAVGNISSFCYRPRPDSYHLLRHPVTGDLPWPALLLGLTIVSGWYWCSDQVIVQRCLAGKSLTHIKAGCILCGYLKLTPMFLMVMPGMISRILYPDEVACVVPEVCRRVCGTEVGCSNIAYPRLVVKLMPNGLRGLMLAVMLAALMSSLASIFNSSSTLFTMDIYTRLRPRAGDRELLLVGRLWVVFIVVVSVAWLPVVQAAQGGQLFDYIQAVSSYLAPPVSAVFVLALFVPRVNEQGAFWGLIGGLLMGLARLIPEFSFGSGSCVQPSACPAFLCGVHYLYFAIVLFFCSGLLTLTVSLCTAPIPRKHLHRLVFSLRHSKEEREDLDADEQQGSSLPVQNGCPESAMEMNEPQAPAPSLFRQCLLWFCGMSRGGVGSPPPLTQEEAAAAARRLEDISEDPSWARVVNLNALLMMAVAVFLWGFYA
experimental-details: SGLT2 activity measurement: 14C-AMG uptake in BHK cells transfected with SGLT2
conditions: AMG 2 mM, 37° C., 90 min
pIC50: −log10 of the molar value.
Below, each entry is listed alongside its reported pIC50.

COc1cc(C)c(-c2nc3ccccn3c2Nc2c(Cl)cc(F)cc2Cl)c(OCC(N)=O)c1    6.00 to 8.00

Data request: Given the compound Cc1cccc(C)c1Nc1c(-c2ccccc2OCC(N)=O)nc2cc(C#N)ccn12 , what is its reported pIC50?
Data returned: < 5.00

Data request: Please give the result for COc1cc(Cl)c(-c2nc3ccc(F)cn3c2Nc2c(C)cccc2C)c(OCC(N)=O)c1 too.
Data returned: 6.00 to 8.00

Data request: Param item: COc1cc(C)c(-c2nc3ccc(F)cn3c2Nc2c(F)cccc2C(F)(F)F)c(OCC(N)=O)c1
Data returned: 6.00 to 8.00
